Assign percent blocking to each entry below.
# System: T1, recombinant monomeric SARS-CoV-2 S1 protein, his-tagged (SARS-CoV-2, UniProt P0DTC2 16-681)
# T1 construct: domain: S1
# Method summary: flow cytometry, blocking of binding to hACE-2 cells
Answers are plain numbers, in %.

Example entries begin here.
1035740 (antibody, V domains shown) VH: EVLLQQSGPELVKPGASVKIPCKASGYTFTDYNMDWVKQSHGKSLEWIGDINPNNGFTIYNQKFKGKATLTVDKSSSTAYMELRSLTSEDTAVYYCAREGYGNYFDYWGQGTTLTVSS VL: DVLLTQSPAILSVSPGERVSFSCRASQSIGTSLHWYQQRTNGSPRLLIKYVSESISGIPSRFSGSGSGTDFTLSINSVESEDIADYYCQQSSSWPTTFGAGTKLELK: 93.4
1035709 (antibody, V domains shown) VH: EVQLQQSGPELVKPGASVKISCKTSGYTFTEYTMHWVKQSHGKSLEWIGGINPNIVDTGYNQKFKGKATLTVDKSSSTAYMELRSLTSEDSAVYYCARDGYPLYYAMDYWGQGTSVTVSS VL: DIQMTQSPSSLSASLGERVSLTCRASQEISGYLSWLQQKPDGTIKRLIYAASTLDSGVPKRFSGSRSGSDYSLTISSLESEDFADYYCLQYASYPWTFGGGTKLEIK: 93.6

In the following, a different binder is considered.
Prompt: For 1035240 (antibody, V domains shown) VH: QVQLQQSGAELARPGASVKMSCKASGYTFTTYTMHWVKQRPGQGLEWIGYINPSSGYTNYNQKFKDKATLTADTSSSTAYMQLSSLTSEDSAVYYCARRNPLYAMDYWGQGTSVTVSS VL: DIKMTQSPSSMYASLGERVTITCKASQDINSYLNWFQQKPGKSPKTLIYRANRLVDGVPSRFSGSGSGQDYSLTISSLEYEDMGIYYCLQYDEFPYTFGGGTKLEIK , what is its reported percent blocking?
Completion: 56.5
